# System: Mus musculus
# assay.info: Minimum tolerated dose against Lox melanoma human xenograft models in athymic mice
# Format: functional
# key: entry, value: MTD

- compound.smiles: "CN[C@H](C(=O)N[C@H](C(=O)N(C)[C@H](/C=C(\\C)C(=O)O)C(C)C)C(C)(C)C)C(C)(C)c1ccc(C)c(C)c1"
  measurement.target: "Mus musculus"
  MTD: ">1 mpk"
- compound.smiles: "CN[C@H](C(=O)N[C@H](C(=O)N(C)[C@H](/C=C(\\C)C(=O)O)C(C)C)C(C)(C)C)C(C)(C)c1cccc(C(F)(F)F)c1"
  measurement.target: "Mus musculus"
  MTD: ">5 mpk"
- compound.smiles: "CN[C@H](C(=O)N[C@H](C(=O)N(C)[C@H](/C=C(\\C)C(=O)O)C(C)C)C(C)(C)C)C(C)(C)c1cccs1"
  measurement.target: "Mus musculus"
  MTD: ">5 mpk"

Proceed to the following item.
Kindly indicate its recorded MTD. Item: CCOC(=O)/C(C)=C/[C@H](C(C)C)N(C)C(=O)[C@@H](NC(=O)[C@@H](NC)C(C)(C)c1ccc(C)c(C)c1)C(C)(C)C
>2 mpk
